Value source: ChEMBL document CHEMBL4619802

Target: HTH-type quorum-sensing regulator RhlR (Pseudomonas aeruginosa (strain ATCC 15692 / PAO1 / 1C / PRS 101 / LMG12228)) (UniProt P54292)
Sequence (P54292 whole entry): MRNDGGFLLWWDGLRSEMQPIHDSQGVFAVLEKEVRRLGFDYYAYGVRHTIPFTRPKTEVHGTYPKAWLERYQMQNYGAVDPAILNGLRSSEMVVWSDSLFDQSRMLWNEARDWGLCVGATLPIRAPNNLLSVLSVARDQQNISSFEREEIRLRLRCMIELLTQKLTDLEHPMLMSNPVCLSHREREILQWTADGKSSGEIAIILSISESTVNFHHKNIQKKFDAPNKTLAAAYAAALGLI
Assay: Antagonist activity at Pseudomonas aeruginosa RhlR expressed in Escherichia coli DH5alpha assessed as relative protein activity at 100 uM incubated for 1.5 hrs in presence of N-butyryl-L-homoserine lactone by luminescence reporter gene assay relative to control
Set-up: scale not given: the % may be the effect or the level left
Note to self: class labels come from recorded Activity, ranges listed here: 1 = under 60%, 2 = from 60% up to 80%, 3 = 80% and over

Task item: Class for CCCC(O)C#Cc1ccc(F)c(F)c1 (racemic) ?
Reply: 1

Task item: Note: place this molecule into its band. Item: CCCCC(O)CC(=O)CCc1ccc(O)c(OC)c1 (stereo not drawn)
Reply: 2

Task item: Hi there! Could you help me figure out the category for CCCCC[C@@H](O)C#Cc1ccc(O)c(OC)c1 please?
Reply: 1

Task item: Hey, which category is CCCC(O)CC(=O)CCc1ccc(C)cc1 (stereo not drawn) in, do you know?
Reply: 2

Task item: Category of CCCC(O)CC(=O)CCc1ccc(O)c(OCC)c1 (stereo not drawn) :
Reply: 3

Task item: Lab log: CCCCCCC(O)CC(=O)CCc1ccc(O)c(OC)c1 (stereo not drawn) — assign Activity category
Reply: 3

Task item: Hi there! Could you help me figure out the category for CCCC(O)CC(=O)/C=C/c1ccccc1 (stereo not drawn) please?
Reply: 3

Task item: Hello team, could you let me know which band the following molecule falls into: CCCCCC(=O)/C=C/c1ccc(O)c(OC)c1
Reply: 1

Task item: Input CCCCCCCCCC(O)CC(=O)CCc1ccc(O)c(OC)c1 (stereo not drawn) ; output its category
Reply: 1

Task item: Kindly identify the class of CCCC(O)CC(=O)CCc1ccccc1 (stereo not drawn) .
Reply: 3
